Molecular target: MAGL (Mus musculus, UniProt O35678)
Construct: Proteomes (mouse brain membrane fraction or cell lysates); from tissue; host or cells: mouse brain membrane fraction (or unspecified cell lysates)
Assay: In vitro competitive activity-based protein profiling (mouse), MAGL
Format: biochemical
Settings: mouse brain membrane fraction or cell lysates, 30 min preincubation at 37° C, FP-Rh probe
Observation Type: IC50

Use the examples below as a reference point.
> print(dat)
                                   molecule                        target.entity        measured
1  CN(C)C(=O)C1CCN(c2cc(Cl)ccc2CN2CCN(C(=O)OC(C(F)(F)F)C(F)(F)F)CC2)CC1  MAGL (Mus musculus, UniProt O35678)  100 to 1000 nM
2  O=C(OC(C(F)(F)F)C(F)(F)F)N1CCN(Cc2ccc(C(F)(F)F)c(N3CCCC3CO)c2)CC1 (stereo not shown)  MAGL (Mus musculus, UniProt O35678)        < 100 nM

Below: the item to evaluate.
Qu. Return reported IC50; argument: `Cc1c(CN2CCCC2)cccc1CN1CCN(C(=O)OC(C(F)(F)F)C(F)(F)F)CC1`
Ans. 100 to 1000 nM

* * *

Biological target: MAGL (Mus musculus, UniProt O35678)
Construct: Proteomes (mouse brain membrane fraction or cell lysates); from tissue; host or cells: mouse brain membrane fraction (or unspecified cell lysates)
Sequence (O35678 1-303): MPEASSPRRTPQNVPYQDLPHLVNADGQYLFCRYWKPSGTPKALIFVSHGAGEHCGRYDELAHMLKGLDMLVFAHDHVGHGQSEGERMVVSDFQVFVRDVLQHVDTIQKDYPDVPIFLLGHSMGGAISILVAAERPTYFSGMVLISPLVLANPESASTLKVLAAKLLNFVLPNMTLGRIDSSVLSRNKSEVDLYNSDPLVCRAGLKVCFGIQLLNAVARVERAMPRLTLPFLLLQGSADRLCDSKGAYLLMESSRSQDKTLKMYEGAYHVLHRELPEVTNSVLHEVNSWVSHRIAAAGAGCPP
Assay: In vitro competitive activity-based protein profiling (mouse), MAGL
Type: biochemical
Settings: mouse brain membrane fraction or cell lysates, 30 min preincubation at 37° C, FP-Rh probe
Observation Type: IC50

Qu. Item `O=C(O)C1CCN(c2cc(CN3CCN(C(=O)OC(C(F)(F)F)C(F)(F)F)CC3)ccc2C(F)(F)F)CC1` has what recorded IC50?
Ans. 100 to 1000 nM

* * *

Biological target: ABHD6 (Mus musculus, UniProt Q8R2Y0)
Construct: Proteomes (mouse brain membrane fraction or cell lysates); from tissue; host or cells: mouse brain membrane fraction (or unspecified cell lysates)
Sequence (Q8R2Y0 whole entry): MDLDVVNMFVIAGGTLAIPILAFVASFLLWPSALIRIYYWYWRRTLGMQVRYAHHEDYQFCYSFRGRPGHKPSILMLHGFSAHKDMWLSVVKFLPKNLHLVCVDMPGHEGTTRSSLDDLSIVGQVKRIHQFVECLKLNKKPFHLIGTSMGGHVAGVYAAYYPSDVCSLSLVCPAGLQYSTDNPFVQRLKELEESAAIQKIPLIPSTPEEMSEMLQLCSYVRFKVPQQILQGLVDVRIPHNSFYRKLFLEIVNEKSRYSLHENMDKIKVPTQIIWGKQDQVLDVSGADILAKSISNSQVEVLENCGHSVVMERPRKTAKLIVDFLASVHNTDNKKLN
Test: In vitro competitive activity-based protein profiling (mouse), ABHD6
Assay type: biochemical
Details: mouse brain membrane fraction or cell lysates, 30 min preincubation at 37° C, FP-Rh probe
IC50: recorded values

Here are 6 compounds together with their reported answers.
> print(dat)
                                   compound        measured
1  O=C(O)C1CCN(c2cc(Cl)ccc2CN2CCN(C(=O)OC(C(F)(F)F)C(F)(F)F)CC2)CC1       > 1000 nM
2  O=C(OC(C(F)(F)F)C(F)(F)F)N1CCN(Cc2ccc(CN3CCCC3)cc2OC(F)(F)F)CC1       > 1000 nM
3  C#CCO[C@H]1CCN(c2cc(Cl)ccc2CN2CCN(C(=O)OC(C(F)(F)F)C(F)(F)F)CC2)C1       > 1000 nM
4  C#CCO[C@@H]1CCN(c2cc(C(F)(F)F)ccc2CN2CCN(C(=O)OC(C(F)(F)F)C(F)(F)F)CC2)C1       > 1000 nM
5  Cc1ccc(CN2CCN(C(=O)OC(C(F)(F)F)C(F)(F)F)CC2)c(N2CC[C@H](CF)C2)c1       > 1000 nM
6  O=C(OC(C(F)(F)F)C(F)(F)F)N1CCN(Cc2ccc(C(F)(F)F)cc2N2CCC(CO)C2)CC1 (stereo not shown)  100 to 1000 nM

Qu. Data request, read-out IC50, for O=C(O)C1CCN(c2cc(CN3CCN(C(=O)OC(C(F)(F)F)C(F)(F)F)CC3)ccc2C(F)(F)F)C1 (stereo not shown)
Ans. 100 to 1000 nM

Where do the numbers come from? From patent US9771341B2.
